Ref: ChEMBL document CHEMBL1127349

# protocol_details: Half life in plasma after administration of 4 umol/kg dose intravenously
# Format: ADME, organism-based
# measurement_setup: iv

>  <compound>
CCCN(CCC)[C@@H]1CCc2ccc3[nH]c(C#N)cc3c2C1 [U-92,016-A]

>  <half-life (h)>
1.5

$$$$

====

# protocol_details: Time taken to reach maximum concentration after administration of 4 umol/kg dose intravenously
# Assay type: ADME, organism-based
# measurement_setup: in vivo, iv
readout: Tmax (min)

>  <line_notation>
CCCN(CCC)[C@@H]1CCc2ccc3[nH]c(C#N)cc3c2C1

>  <scale_unit>
min

>  <result_value>
4

$$$$

====

# protocol_details: Maximum concentration in plasma after administration of 4 umol/kg dose intravenously
# Type: ADME, organism-based
# Design: dose 4 umol/kg, route intravenous
# measurement_setup: iv
readout: Cmax

>  <line_notation>
CCCN(CCC)[C@@H]1CCc2ccc3[nH]c(C#N)cc3c2C1

>  <readout>
Cmax

>  <result_value>
2570 nM

$$$$

====

# protocol_details: Time taken to reach maximum concentration after administration of 5 umol/kg dose intravenously
# Assay type: ADME, organism-based
# measurement_setup: in vivo, iv

>  <compound>
CCCN(CCC)C1CCc2ccc3[nH]cc(C#N)c3c2C1 (stereo unspecified)

>  <scale_unit>
min

>  <Tmax>
2

$$$$

====

# protocol_details: Bioavailability in rats after 2 mg/kg (i.v.) and 10 mg/kg (p.o.) administration
# Assay type: ADME, organism-based
# measurement_setup: rat, in vivo, po
readout: bioavailability (%)

>  <compound>
CCCN(CCC)C1CCc2ccc3[nH]cc(C#N)c3c2C1 (stereo unspecified)

>  <scale_unit>
%

>  <result_value>
54

$$$$

====

# protocol_details: Maximum concentration in plasma after administration of 5 umol/kg dose intravenously
# Format: ADME, organism-based
# Set-up: dose 5 umol/kg, route intravenous
# measurement_setup: iv
readout: Cmax (nM)

>  <molecule>
CCCN(CCC)C1CCc2ccc3[nH]cc(C#N)c3c2C1 (stereo unspecified)

>  <scale_unit>
nM

>  <result_value>
1730

$$$$

====

# protocol_details: Half life in plasma after administration of 2 umol/kg dose intravenously
# Format: ADME, organism-based
# measurement_setup: iv

>  <line_notation>
CCCN(CCC)[C@H]1CCc2ccc3[nH]cc(C=O)c3c2C1

>  <half-life / h>
1

$$$$

====

# Tested on: Rattus norvegicus
# protocol_details: Motor activity was measured by motility testing on injecting the compound subcutaneously into rats at the dose of 12.5 umol/kg
# Format: functional
Consider the following compounds and their measured log10 of Activity readings.
readout: log10 of Activity (log10 of the value in Counts 30min-1)

>  <compound>
CCCN(CCC)[C@@H]1CCc2ccc3[nH]ccc3c2C1

>  <log10 of Activity>
1.91

$$$$
>  <compound>
CCCN(CCC)[C@@H]1CCc2ccc3[nH]c(C#N)cc3c2C1 [U-92,016-A]

>  <log10 of Activity>
2.29

$$$$
>  <compound>
CCCN(CCC)C1CCc2ccc3[nH]ccc3c2C1 (centres undefined)

>  <log10 of Activity>
2.25

$$$$
>  <compound>
CCCN(CCC)C1CCc2ccc3cc[nH]c3c2C1 (centres undefined)

>  <log10 of Activity>
2.08

$$$$
>  <compound>
CCCN(CCC)[C@H]1CCc2ccc3[nH]ccc3c2C1

>  <log10 of Activity>
1.46

$$$$
>  <compound>
CCCN(CCC)C1CCc2ccc3[nH]cc(CC(F)(F)F)c3c2C1 (centres undefined)

>  <log10 of Activity>
1.00

$$$$
>  <compound>
CCCN(CCC)C1CCc2ccc3c(CC(F)(F)F)c[nH]c3c2C1 (centres undefined)

>  <log10 of Activity>
1.87

$$$$
>  <compound>
CCCN(CCC)[C@H]1CCc2ccc3[nH]cc(C#N)c3c2C1

>  <log10 of Activity>
2.48

$$$$
>  <compound>
CCCN(CCC)C1CCc2ccc3[nH]cc(C#N)c3c2C1 (centres undefined)

>  <log10 of Activity>
2.50

$$$$

====

# Species: Rattus norvegicus
# protocol_details: The concentration yielding a half maximal decrease of the 5-HTP was determined in rat limbic system.
# Type: functional
Consider the following compounds and their measured ED50 readings.
readout: ED50 (µmol/kg)

>  <line_notation>
CCCN(CCC)[C@H]1CCc2ccc3[nH]cc(C#N)c3c2C1

>  <result_value>
0.12

$$$$
>  <line_notation>
CCCN(CCC)[C@@H]1CCc2ccc3[nH]c(C#N)cc3c2C1

>  <result_value>
0.21

$$$$
>  <line_notation>
CCCN(CCC)[C@@H]1CCc2ccc3[nH]cc(C#N)c3c2C1

>  <result_value>
0.092

$$$$

====

Consider the following molecules and their measured Ki readings.
# measured_on: D(2) dopamine receptor (Rattus norvegicus)
# Sequence (P61169 whole entry): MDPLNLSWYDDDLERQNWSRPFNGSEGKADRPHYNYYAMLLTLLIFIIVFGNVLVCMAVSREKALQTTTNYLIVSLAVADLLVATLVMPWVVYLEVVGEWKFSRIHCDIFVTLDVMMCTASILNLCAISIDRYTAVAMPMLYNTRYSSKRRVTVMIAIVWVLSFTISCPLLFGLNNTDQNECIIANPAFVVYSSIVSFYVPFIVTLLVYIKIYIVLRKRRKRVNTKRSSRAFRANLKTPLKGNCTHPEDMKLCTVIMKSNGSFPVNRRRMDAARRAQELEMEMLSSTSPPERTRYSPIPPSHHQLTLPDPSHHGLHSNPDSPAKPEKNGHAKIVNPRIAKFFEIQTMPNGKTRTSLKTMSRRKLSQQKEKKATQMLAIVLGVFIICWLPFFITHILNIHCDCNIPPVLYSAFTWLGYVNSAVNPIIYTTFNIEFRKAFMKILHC
# protocol_details: Displacement of the radioligand [3H]spiperone from D2 receptor

>  <molecule>
CCCN(CCC)C1CCc2ccc3c(CC(F)(F)F)c[nH]c3c2C1 (stereo not given)

>  <limit_sign>
=

>  <Ki (nM)>
2330

$$$$
>  <molecule>
CCCN(CCC)C1CCc2ccc3c(c2C1)N(C=O)CC3 (stereo not given)

>  <limit_sign>
>

>  <Ki (nM)>
16000

$$$$
>  <molecule>
CCCN(CCC)C1CCc2cc3c(C=O)c[nH]c3cc2C1 (stereo not given)

>  <limit_sign>
=

>  <Ki (nM)>
700

$$$$
>  <molecule>
CCCN(CCC)[C@@H]1CCc2ccc3[nH]c(C#N)cc3c2C1 [U-92,016-A]

>  <limit_sign>
=

>  <Ki (nM)>
538

$$$$
>  <molecule>
CCCN(CCC)C1CCc2ccc3[nH]cc(C#N)c3c2C1 (stereo not given)

>  <limit_sign>
=

>  <Ki (nM)>
439

$$$$
